- targetOrSystem: T1, human BCMA-Fc (human)
- T1 chain: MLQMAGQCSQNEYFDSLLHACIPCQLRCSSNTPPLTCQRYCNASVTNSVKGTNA
- assayNotes: SPR, 25C
observationType: Kd (nM)
Provide the reading as a plain figure in nM.

Example entries and their recorded answers appear below.
{"binder": "P1AG5026 (E04_VH1b/VL1a) (antibody, V domains shown) VH: QVQLVQSGAEVKKPGASVKVSCKASGYTFTNYWMHWVRQAPGQGLEWMGIIHPNSGSTNYNEKFQGRVTMTVDKSTSTVYMELSSLRSEDTAVYYCARGIYDYPFAYWGQGTLVTVSS VL: DIQMTQSPSSLSASVGDRVTITCRASESVSIHGTHLMHWYQQKPGKAPKLLIYAASNLESGVPSRFSGSGSGTDFTLTISSLQPEDFATYYCQQSIEDPYTFGGGTKVEIK", "unitText": "nM", "Kd": 2.7}
{"binder": "P1AG5057 (54_VH1a_Y292D/VL1a) (antibody, V domains shown) VH: EVQLVESGGGLVKPGGSLRLSCAASGFTFSNAWMDWVRQAPGKGLEWVGQITAKSNNYATDYAAPVKGRFTISRDDSKNTLYLQMNSLKTEDTAVYYCTDDGYHWGQGTLVTVSS VL: AIQMTQSPSSLSASVGDRVTITCRASEDIRNGLAWYQQKPGKAPKLLIYNANSLHTGVPSRFSGSGSGTDFTLTISSLQPEDFATYYCEDTSKYPYTFGQGTKLEIK", "unitText": "nM", "Kd": 1.7}
{"binder": "P1AG5013 (54_VH2a/VL1a_L1_pGL) (antibody, V domains shown) VH: EVQLLESGGGLVQPGGSLRLSCAASGFTFSNAWMDWVRQAPGKGLEWVSQITAKSNNYATYYADSVKGRFTISRDNSKNTLYLQMNSLRAEDTAVYYCTDDGYHWGQGTLVTVSS VL: AIQMTQSPSSLSASVGDRVTITCRASEDIRNDLGWYQQKPGKAPKLLIYNANSLHTGVPSRFSGSGSGTDFTLTISSLQPEDFATYYCEDTSKYPYTFGQGTKLEIK", "unitText": "nM", "Kd": 2.4}
{"binder": "P1AG5007 (E04_VH1a/VL1e) (antibody, V domains shown) VH: QVQLVQSGAEVKKPGASVKVSCKASGYTFTNYWMHWVRQAPGQGLEWMGIIHPNSGSTNYNEKFQGRVTMTRDTSTSTVYMELSSLRSEDTAVYYCARGIYDYPFAYWGQGTLVTVSS VL: DIQMTQSPSSLSASVGDRVTITCRASESVSIHGTHLMHWYQQKPGKAPKLLIYAASSLQSGVPSRFSGSGSGTDFTLTISSLQPEDFATYYCQQSIEDPYTFGGGTKVEIK", "unitText": "nM", "Kd": 3}
{"binder": "P1AG5044 (E04_VH1b/VL1b) (antibody, V domains shown) VH: QVQLVQSGAEVKKPGASVKVSCKASGYTFTNYWMHWVRQAPGQGLEWMGIIHPNSGSTNYNEKFQGRVTMTVDKSTSTVYMELSSLRSEDTAVYYCARGIYDYPFAYWGQGTLVTVSS VL: DIQMTQSPSSLSASVGDRVTITCRASESVSIHGTHLMHWYQQKPGKAPKLLIYAASNLESGVPSRFSGSGSETDFTLTISSLQPEDFATYYCQQSIEDPYTFGGGTKVEIK", "unitText": "nM", "Kd": 1.8}
{"binder": "P1AG5063 (E04_VH1a/VL1a) (antibody, V domains shown) VH: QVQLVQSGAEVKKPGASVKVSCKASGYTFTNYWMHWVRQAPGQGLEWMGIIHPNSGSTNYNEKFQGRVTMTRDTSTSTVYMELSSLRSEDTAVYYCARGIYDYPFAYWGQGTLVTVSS VL: DIQMTQSPSSLSASVGDRVTITCRASESVSIHGTHLMHWYQQKPGKAPKLLIYAASNLESGVPSRFSGSGSGTDFTLTISSLQPEDFATYYCQQSIEDPYTFGGGTKVEIK", "unitText": "nM", "Kd": 1.6}

As a next step, examine the binder that follows.
Exercise: Query: Kd; subject: P1AG5034 (E04_VH1b/VL1e) (antibody, V domains shown) VH: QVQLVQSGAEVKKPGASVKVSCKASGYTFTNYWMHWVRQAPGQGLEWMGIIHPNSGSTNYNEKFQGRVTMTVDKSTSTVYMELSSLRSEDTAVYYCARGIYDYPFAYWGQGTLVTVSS VL: DIQMTQSPSSLSASVGDRVTITCRASESVSIHGTHLMHWYQQKPGKAPKLLIYAASSLQSGVPSRFSGSGSGTDFTLTISSLQPEDFATYYCQQSIEDPYTFGGGTKVEIK
Solution: 3.2

meta.source: patent US20260285998
